- Assay details: glucagon-like peptide 1 release enhancers, primary assay, NCI-H716 cell line, NPC library (AID 1117341); note: reference of the scale not given here
- Reported conditions: NCI-H716 cells, at 10 µM, stronger effect = higher value
Activity calls are given as the source filed them.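 Rule for the calls: active = compound raises GLP1 secretion from the human gut endocrine cells, with no numeric limit stated; inactive = the rest.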
So I've got a bunch of molecules here, and I need their GLP1 secretion stimulation values.

# GLP1 secretion stimulation lookup, item COc1ccccc1OCC(O)COC(N)=O (stereo not given) -4% (inactive)

Need GLP1 secretion stimulation of CC(CC(C#N)(c1ccccc1)C(C)C)N(C)C (stereo not given) , thanks. 0.5% (inactive)

# lookup: GLP1 secretion stimulation of NC(=O)NNc1ccccc1 1.4% (inactive)

Returns the measured GLP1 secretion stimulation for the input molecule. Input: Cc1ncc(C[n+]2csc(CCOP(=O)(O)O)c2C)c(N)n1 1% (inactive)

Which GLP1 secretion stimulation value belongs to Cc1cc(CCCOc2c(C)cc(-c3noc(C(F)(F)F)n3)cc2C)on1 ? -4.1% (inactive)

Record request: GLP1 secretion stimulation value, item O=C(O)Cc1csc(-c2ccc(Cl)cc2)n1 -2.9% (inactive)

Would you mind telling me what GLP1 secretion stimulation value was observed for CCN[C@@H]1C[C@H](N)[C@@H](OC2OC(CN)=CCC2N)[C@H](O)[C@H]1O[C@H]1OC[C@](C)(O)[C@H](NC)[C@H]1O (stereo not given in full) ? -0.5% (inactive)

// returns reported GLP1 secretion stimulation for input CC(C)(C)c1ccc2c(S(=O)(=O)O)c(C(C)(C)C)ccc2c1 1% (inactive)

Would you mind telling me what GLP1 secretion stimulation value was observed for OCC=Cc1ccccc1 ? -1.9% (inactive)

Bench note: what GLP1 secretion stimulation did Cc1c(C)c2c(c(C)c1OC(=O)CCC(=O)O)CC[C@@](C)(CCC[C@H](C)CCC[C@H](C)CCCC(C)C)O2 show? -3.2% (inactive)
